Data provenance: patent US9775844B2

For PI3K γ (Homo sapiens (Human), UniProt P48736), measured IC50 is reported for the entries below.

Query: Report IC50 for C[C@H](NC(=O)c1c(N)nn2cccnc12)c1cc2cccc(C#Cc3cn[nH]c3)c2c(=O)n1-c1ccccc1 tested on PI3K γ (Homo sapiens (Human), UniProt P48736).
Sequence (P48736 whole entry): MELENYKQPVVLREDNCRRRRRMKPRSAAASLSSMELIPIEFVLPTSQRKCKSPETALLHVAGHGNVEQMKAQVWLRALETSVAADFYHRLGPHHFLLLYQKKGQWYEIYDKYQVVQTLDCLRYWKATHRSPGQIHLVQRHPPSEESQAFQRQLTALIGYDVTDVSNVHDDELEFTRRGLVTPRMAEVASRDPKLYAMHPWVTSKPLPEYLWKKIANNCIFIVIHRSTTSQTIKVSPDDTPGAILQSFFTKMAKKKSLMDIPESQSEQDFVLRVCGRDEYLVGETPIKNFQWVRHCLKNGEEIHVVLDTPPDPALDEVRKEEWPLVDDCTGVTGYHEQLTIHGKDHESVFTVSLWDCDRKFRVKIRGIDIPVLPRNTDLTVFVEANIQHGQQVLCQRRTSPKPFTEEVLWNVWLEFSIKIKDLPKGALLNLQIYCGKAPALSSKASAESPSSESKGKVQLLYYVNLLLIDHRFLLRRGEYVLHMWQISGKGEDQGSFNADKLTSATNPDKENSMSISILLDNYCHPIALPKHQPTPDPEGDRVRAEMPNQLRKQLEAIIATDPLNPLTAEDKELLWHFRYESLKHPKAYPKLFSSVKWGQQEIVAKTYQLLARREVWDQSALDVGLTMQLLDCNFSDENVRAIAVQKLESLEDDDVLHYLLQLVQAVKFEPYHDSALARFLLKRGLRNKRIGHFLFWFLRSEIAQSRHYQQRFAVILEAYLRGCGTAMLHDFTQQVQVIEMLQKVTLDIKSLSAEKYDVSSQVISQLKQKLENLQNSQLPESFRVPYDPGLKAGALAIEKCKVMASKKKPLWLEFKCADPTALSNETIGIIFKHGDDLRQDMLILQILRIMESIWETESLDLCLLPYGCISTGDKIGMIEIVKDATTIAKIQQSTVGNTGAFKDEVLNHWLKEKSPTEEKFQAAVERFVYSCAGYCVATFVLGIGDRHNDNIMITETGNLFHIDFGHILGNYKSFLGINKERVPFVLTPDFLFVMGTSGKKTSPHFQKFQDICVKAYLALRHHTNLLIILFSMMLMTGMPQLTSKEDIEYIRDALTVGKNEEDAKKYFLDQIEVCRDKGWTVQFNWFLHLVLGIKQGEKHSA
Result: 1 to 100 nM

Query: Report IC50 for C#Cc1cccc2nc([C@H](C)NC(=O)c3c(N)nn4cccnc34)n(-c3ccc(F)c(F)c3)c(=O)c12 tested on PI3K γ (Homo sapiens (Human), UniProt P48736).
Result: 100 to 500 nM

Query: Report IC50 for C[C@H](NC(=O)c1c(N)nn2cccnc12)c1cc2cccc(C#Cc3cncn3C)c2c(=O)n1-c1ccccc1 tested on PI3K γ (Homo sapiens (Human), UniProt P48736).
Result: 100 to 500 nM

Query: Report IC50 for C[C@H](NC(=O)c1c(N)nn2cccnc12)c1cc2cccc(C#Cc3cscn3)c2c(=O)n1-c1ccccc1 tested on PI3K γ (Homo sapiens (Human), UniProt P48736).
Result: 1 to 100 nM

Query: Report IC50 for C[C@H](NC(=O)c1cnn2cccnc12)c1cc2cccc(C#Cc3cnn(C)c3)c2c(=O)n1-c1ccccc1 tested on PI3K γ (Homo sapiens (Human), UniProt P48736).
Result: 100 to 500 nM

Query: Report IC50 for C[C@H](NC(=O)c1c(N)nn2cccnc12)c1cc2cccc(C#CC3(O)CN4CCC3CC4)c2c(=O)n1-c1ccccc1 (stereo partly shown) tested on PI3K γ (Homo sapiens (Human), UniProt P48736).
Result: 500 to 1000 nM

Query: Report IC50 for C[C@H](NC(=O)c1c(N)nn2cccnc12)c1cc2cccc(C#Cc3cnn(C)c3)c2c(=O)n1CCS(=O)(=O)N(C)C tested on PI3K γ (Homo sapiens (Human), UniProt P48736).
Result: 1 to 100 nM

Query: Report IC50 for Cc1ccncc1C#Cc1cccc2cc([C@H](C)NC(=O)c3c(N)nn4cccnc34)n(-c3ccccc3)c(=O)c12 tested on PI3K γ (Homo sapiens (Human), UniProt P48736).
Result: 500 to 1000 nM

Query: Report IC50 for Cc1nn(C)cc1C#Cc1cccc2cc([C@H](C)NC(=O)c3c(N)nn4cccnc34)n(-c3ccccc3)c(=O)c12 tested on PI3K γ (Homo sapiens (Human), UniProt P48736).
Result: 100 to 500 nM

Query: Report IC50 for C[C@H](NC(=O)c1c(N)nn2cccnc12)c1cc2cccc(C#CC(C)(C)N)c2c(=O)n1-c1ccccc1 tested on PI3K γ (Homo sapiens (Human), UniProt P48736).
Result: 500 to 1000 nM

###

# measured_on: PI3K-γ in RAW264.7 macrophages (Mus musculus (Mouse))
# Sequence (Q9JHG7 whole entry): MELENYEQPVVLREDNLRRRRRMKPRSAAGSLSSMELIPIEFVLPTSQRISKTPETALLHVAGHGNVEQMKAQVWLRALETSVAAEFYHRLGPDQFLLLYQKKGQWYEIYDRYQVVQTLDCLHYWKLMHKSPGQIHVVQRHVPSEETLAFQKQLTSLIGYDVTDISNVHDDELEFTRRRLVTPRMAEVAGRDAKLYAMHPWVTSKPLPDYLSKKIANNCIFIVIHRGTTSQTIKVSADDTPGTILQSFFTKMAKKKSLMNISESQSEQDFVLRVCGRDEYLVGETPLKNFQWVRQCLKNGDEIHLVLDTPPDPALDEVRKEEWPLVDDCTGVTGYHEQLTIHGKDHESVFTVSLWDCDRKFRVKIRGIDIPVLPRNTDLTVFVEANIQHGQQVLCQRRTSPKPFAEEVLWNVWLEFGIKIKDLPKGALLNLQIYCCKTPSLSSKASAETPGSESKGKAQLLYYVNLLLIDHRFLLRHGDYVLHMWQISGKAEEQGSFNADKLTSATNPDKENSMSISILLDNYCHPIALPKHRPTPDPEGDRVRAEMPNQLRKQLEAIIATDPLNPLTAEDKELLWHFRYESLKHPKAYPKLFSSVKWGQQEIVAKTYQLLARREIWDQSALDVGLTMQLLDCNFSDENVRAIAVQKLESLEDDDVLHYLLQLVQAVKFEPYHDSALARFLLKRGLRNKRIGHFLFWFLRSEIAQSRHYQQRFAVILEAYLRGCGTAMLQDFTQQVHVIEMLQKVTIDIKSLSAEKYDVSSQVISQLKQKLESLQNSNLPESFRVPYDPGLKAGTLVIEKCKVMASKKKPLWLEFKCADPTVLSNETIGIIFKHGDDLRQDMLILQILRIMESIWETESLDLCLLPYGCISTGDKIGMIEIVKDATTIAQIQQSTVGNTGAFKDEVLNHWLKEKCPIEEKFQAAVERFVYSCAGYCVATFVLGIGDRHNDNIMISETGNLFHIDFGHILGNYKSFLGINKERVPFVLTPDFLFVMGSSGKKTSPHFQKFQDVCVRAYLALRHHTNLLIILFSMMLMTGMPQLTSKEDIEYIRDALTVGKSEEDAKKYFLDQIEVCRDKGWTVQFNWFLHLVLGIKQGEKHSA
# test_summary: Raw264.7 p110 γ assay (PI3K-γ selective cellular assay, C5a-stimulated phospho-AKT)
# Format: cell-based
# assay_setup: phospho-AKT; read-out: Raw264.7 p110 γ assay IC50
pIC50: −log10 of the molar value.
What pIC50 was measured for each of the following?

Query: Which measured pIC50 value corresponds to C[C@H](NC(=O)c1c(N)nn2cccnc12)c1cc2cccc(C#CCO)c2c(=O)n1-c1ccccc1 [Compound 13] ?
Result: 7.30 to 9.00

Query: Which measured pIC50 value corresponds to C[C@H](NC(=O)c1c(N)nn2cccnc12)c1cc2cccc(C#Cc3cc[nH]c(=O)c3)c2c(=O)n1-c1ccccc1 [Compound 31] ?
Result: 7.00 to 7.30

Query: Which measured pIC50 value corresponds to C[C@H](NC(=O)c1c(N)nn2cccnc12)c1cc2cccc(C#CC3CCOC3)c2c(=O)n1-c1ccccc1 (some centres unmarked) [Compound 84] ?
Result: 7.30 to 9.00

Query: Which measured pIC50 value corresponds to C[C@H](NC(=O)c1c(N)nn2cccnc12)c1cc2cccc(C#Cc3cscn3)c2c(=O)n1-c1ccccc1 [Compound 54] ?
Result: 7.30 to 9.00

Query: Which measured pIC50 value corresponds to C#Cc1cccc2nc([C@H](C)NC(=O)c3c(N)nn4cccnc34)n(-c3ccc(F)c(F)c3)c(=O)c12 [Compound 45] ?
Result: 7.30 to 9.00

Query: Which measured pIC50 value corresponds to C[C@H](NC(=O)c1c(N)nn2cccnc12)c1cc2cccc(CC(=O)c3cnn(C)c3)c2c(=O)n1-c1ccccc1 [Compound 91] ?
Result: 5.00 to 7.00

Query: Which measured pIC50 value corresponds to C[C@H](NC(=O)c1nccnc1N)c1cc2cccc(C#Cc3cnn(C)c3)c2c(=O)n1-c1ccccc1 [Compound 29] ?
Result: 7.30 to 9.00

Query: Which measured pIC50 value corresponds to C[C@H](NC(=O)c1c(N)nn2cccnc12)c1cc2cccc(C#CC(F)(F)F)c2c(=O)n1-c1ccccc1 [Compound 58] ?
Result: 5.00 to 7.00

Query: Which measured pIC50 value corresponds to Cc1c(C#Cc2cccc3cc([C@H](C)NC(=O)c4c(N)nn5cccnc45)n(-c4ccccc4)c(=O)c23)cnn1C [Compound 35] ?
Result: 7.30 to 9.00

Query: Which measured pIC50 value corresponds to Cc1ccncc1C#Cc1cccc2cc([C@H](C)NC(=O)c3c(N)nn4cccnc34)n(-c3ccccc3)c(=O)c12 [Compound 61] ?
Result: 7.30 to 9.00

Query: Which measured pIC50 value corresponds to CCOC(C#Cc1cccc2cc([C@H](C)NC(=O)c3c(N)nn4cccnc34)n(-c3ccccc3)c(=O)c12)OCC [Compound 34] ?
Result: 7.00 to 7.30

Query: Which measured pIC50 value corresponds to C[C@H](NC(=O)c1c(N)nn2cccnc12)c1cc2cccc(C#CC(C)(C)C)c2c(=O)n1-c1ccccc1 [Compound 3] ?
Result: 7.00 to 7.30

Query: Which measured pIC50 value corresponds to C[C@H](NC(=O)c1c(N)nn2cccnc12)c1cc2cccc(C#CC3(O)CN4CCC3CC4)c2c(=O)n1-c1ccccc1 (some centres unmarked) [Compound 62] ?
Result: 5.00 to 7.00

Query: Which measured pIC50 value corresponds to C[C@H](NC(=O)c1c(N)nn2cccnc12)c1cc2ccc3ccccc3c2c(=O)n1-c1ccccc1 [Compound 89] ?
Result: 7.30 to 9.00

###

What pIC50 was measured for each of the following?
# measured_on: PI3K γ (Homo sapiens (Human))
# test_summary: PI3-Kinase Promega ADP-Glo Max assay
# Format: biochemical
pIC50: −log10 of the molar value.

Query: Report pIC50 for CC#Cc1cccc2cc(C(C)NC(=O)c3c(N)nn4cccnc34)c(-c3ccccc3)nc12 (centres unmarked) [Compound 51] tested on PI3K γ (Homo sapiens (Human)).
Result: 6.30 to 7.00

Query: Report pIC50 for C[C@H](NC(=O)c1c(N)nn2cccnc12)c1cc2cccc(C#Cc3ccn(C)n3)c2c(=O)n1-c1ccccc1 [Compound 30] tested on PI3K γ (Homo sapiens (Human)).
Result: 6.30 to 7.00

Query: Report pIC50 for Cc1ccn2nc(N)c(C(=O)N[C@@H](C)c3cc4cccc(C#Cc5cnn(C)c5)c4c(=O)n3-c3ccccc3)c2n1 [Compound 106] tested on PI3K γ (Homo sapiens (Human)).
Result: 7.00 to 9.00

Query: Report pIC50 for C[C@H](NC(=O)c1c(N)nn2cccnc12)c1cc2cccc(C#Cc3cccnc3)c2c(=O)n1-c1ccccc1 [Compound 17] tested on PI3K γ (Homo sapiens (Human)).
Result: 6.30 to 7.00

Query: Report pIC50 for Cc1nc(C)c(C#Cc2cccc3cc([C@H](C)NC(=O)c4c(N)nn5cccnc45)n(-c4ccccc4)c(=O)c23)s1 [Compound 79] tested on PI3K γ (Homo sapiens (Human)).
Result: 6.00 to 6.30

Query: Report pIC50 for CNS(=O)(=O)CCn1c([C@H](C)NC(=O)c2c(N)nn3cccnc23)cc2cccc(C#Cc3cnn(C)c3)c2c1=O [Compound 100] tested on PI3K γ (Homo sapiens (Human)).
Result: 7.00 to 9.00

Query: Report pIC50 for C#Cc1cccc2nc([C@H](C)NC(=O)c3c(N)nn4cccnc34)n(-c3ccc(F)cc3)c(=O)c12 [Compound 50] tested on PI3K γ (Homo sapiens (Human)).
Result: 7.00 to 9.00

Query: Report pIC50 for C[C@H](NC(=O)c1c(N)nn2cccnc12)c1cc2cccc(C#Cc3cncn3C)c2c(=O)n1C1CC1 [Compound 23] tested on PI3K γ (Homo sapiens (Human)).
Result: 5.30 to 6.00

Query: Report pIC50 for C[C@H](NC(=O)c1c(N)nn2cccnc12)c1cc2ccc3ccccc3c2c(=O)n1-c1ccccc1 [Compound 89] tested on PI3K γ (Homo sapiens (Human)).
Result: 6.00 to 6.30

Query: Report pIC50 for C[C@H](NC(=O)c1c(N)nn2cccnc12)c1cc2cccc(C#CC3CC3)c2c(=O)n1-c1ccccc1 [Compound 9] tested on PI3K γ (Homo sapiens (Human)).
Result: 6.30 to 7.00

Query: Report pIC50 for C[C@H](NC(=O)c1c(N)nn2cccnc12)c1cc2cccc(C#CCN3CCOCC3)c2c(=O)n1-c1ccccc1 [Compound 10] tested on PI3K γ (Homo sapiens (Human)).
Result: 6.30 to 7.00

Query: Report pIC50 for C[C@H](NC(=O)c1c(N)nn2cccnc12)c1cc2cccc(C#CC3CCCC3)c2c(=O)n1-c1ccccc1 [Compound 64] tested on PI3K γ (Homo sapiens (Human)).
Result: 5.30 to 6.00

Query: Report pIC50 for C[C@H](NC(=O)c1c(N)nn2cccnc12)c1cc2cccc(NC(=O)c3cnn(C)c3)c2c(=O)n1-c1ccccc1 [Compound 90] tested on PI3K γ (Homo sapiens (Human)).
Result: 5.30 to 6.00

Query: Report pIC50 for COc1ncc(C#Cc2cccc3cc([C@H](C)NC(=O)c4c(N)nn5cccnc45)n(-c4ccccc4)c(=O)c23)cn1 [Compound 18] tested on PI3K γ (Homo sapiens (Human)).
Result: 6.30 to 7.00
